I'd be grateful if you could share measured microsomal CLint for these entries.
# protocol-text: Clearance in human liver microsomes
# Format: ADME, microsome
# test-conditions: read-out: CLH
State just the number; it will be interpreted in µL/min/mg.

Per the records, this molecule ( CC(C)(C)OC(=O)N1CCC(c2coc3c(N4CCc5cc(S(C)(=O)=O)ccc54)ncnc23)CC1 ) has microsomal CLint equal to 550

Per the records, this molecule ( CS(=O)(=O)c1ccc2c(c1)CCN2c1ncnc2c(C3CCN(c4ncc(F)cn4)CC3)coc12 ) has microsomal CLint equal to 257

Per the records, this molecule ( Cc1cnc(N2CCC(c3coc4c(N5CCc6cc(S(C)(=O)=O)ccc65)ncnc34)CC2)nc1 ) has microsomal CLint equal to 349

Per the records, this molecule ( CS(=O)(=O)c1ccc2c(c1)CCN2c1ncnc2c(C3CCN(c4ncc(O)cn4)CC3)coc12 ) has microsomal CLint equal to 132

Per the records, this molecule ( CC(O)c1cnc(N2CCC(c3coc4c(N5CCc6cc(S(C)(=O)=O)ccc65)ncnc34)CC2)nc1 (centres undefined) ) has microsomal CLint equal to 102

Per the records, this molecule ( CS(=O)(=O)c1ccc2c(c1)CCN2c1ncnc2c(C3CCN(c4ncc(Cl)cn4)CC3)coc12 ) has microsomal CLint equal to 113

Per the records, this molecule ( CCc1cnc(N2CCC(c3coc4c(N5CCc6cc(S(C)(=O)=O)ccc65)ncnc34)CC2)nc1 ) has microsomal CLint equal to 412

Per the records, this molecule ( COc1cnc(N2CCC(c3coc4c(N5CCc6cc(S(C)(=O)=O)ccc65)ncnc34)CC2)nc1 ) has microsomal CLint equal to 255

Per the records, this molecule ( CC(=O)c1cnc(N2CCC(c3coc4c(N5CCc6cc(S(C)(=O)=O)ccc65)ncnc34)CC2)nc1 ) has microsomal CLint equal to 74

// provenance: ChEMBL document CHEMBL4052704
